Test system: RXRa DBDmut IVT, anti-RXR (DBD mutation: RXRa K156A/R161A, NR concentration 90 nM)
test.details: PBM binding z-score (relative to random genomic background probes); higher = stronger binding; sequences stand for … in GC…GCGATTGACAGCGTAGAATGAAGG
recorded.endpoint: PBM binding z-score
Keep it simple and answer with nothing but the number.

GGAACGAGGGCAAAGTTGACAGCATCTGTCGACG ... 2.56
GCTAGCAGGCCATTTGGGTCACTCCATGACGGGC ... 0.0531
TCATATAGGTAAAAAGTGAAAGTCGGTGTGGTAA ... 2.01

Query for RXRa DBDmut IVT, anti-RXR (DBD mutation: RXRa K156A/R161A, NR concentration 90 nM): what PBM binding z-score does the record show for CCTGATAGGTCAATGGTCAGCTAAAGCAGCTCGC ?
1.32

How about this sequence: AGAATGAGGTTATACGTAGATCCGGGAAGAAAGT
1.78

How about this sequence: GCGACTGGGGCATCAACAGGTTACCATAACTTAA
0.306

###

System: FXR:RXRa (NR concentration 270 nM, RXRa partner concentration 90 nM)
test.details: PBM binding z-score (relative to random genomic background probes); higher = stronger binding; sequences stand for … in GC…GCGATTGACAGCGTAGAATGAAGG
Each entry gets n if its PBM binding z-score stays under 0.7, and y if its PBM binding z-score is 0.7 or above.

ATCTCTAGCTAAAGTTCAGTGAAAGATCGATAGA ... n
TCTTGTAGATCAATCAGGTTAAGAAAGCCTGAGT ... y
AGTCAAAGTTCATCTAGGTAACGTCAGATATGCT ... y
CGAACGAGGGCATGAGTTGATATCAAATGCCGAT ... n
CCTACTGGGCCATTCTGAGGTCATTGATCATATG ... y
ACTTACGGGTCAACGAGGTTATAGCACGCGTATA ... y
ACTAGCAGGCCATGTTTGGGTCACTCAAACAAAG ... n
TTCCCAAGGTGAGCTGAGGTCGTTGATCCAACTC ... y
ATCACTAGGTAACAAGTTCAGTGAAAGAGAGGAC ... n
ATCTCTAGGTAAAAGTTAAGTGAATCCCGAGGAT ... n

Now consider the entry below.
Entry AGATTGAGGTTATTAAGATCAGGGAATTGCGGTC : is its PBM binding z-score no less than 0.7?
y

###

Test system: PPARg:RXRa DBDmut IVT, anti-RXR (DBD mutation: RXRa K156A/R161A, NR concentration 270 nM, RXRa partner concentration 90 nM)
test.details: PBM binding z-score (relative to random genomic background probes); higher = stronger binding; sequences stand for … in GC…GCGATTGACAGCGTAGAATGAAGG
recorded.endpoint: PBM binding z-score

Examples with their reported PBM binding z-score follow.
ATCTCTAGGTATGACTCAGTTCAGTGAAGAACGC ... 0.262
CCTAGCAGGCCAATCTGGGTCACTCACGGCTTGA ... 4.16
GCGACTGGGGCATCAGCAGGTAACCATAACTTAA ... 3.85
CCTACTGGACCACGAAAGGTCATTGATTCAGTGA ... 3.39
TAGCCTAGGTCAGATCGGGCCAGCATACGCTATA ... 0.377

Attention now shifts to the item below.
Fill in the blank: the reported PBM binding z-score of CGTACTAGGTCATCCAGGACAGTGAATACATTGA is ____.
7.23

###

Tested on: RXRa DBDmut IVT, anti-RXR (DBD mutation: RXRa K156A/R161A, NR concentration 90 nM)
test.details: PBM binding z-score (relative to random genomic background probes); higher = stronger binding; sequences stand for … in GC…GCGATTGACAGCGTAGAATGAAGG
Each entry gets Condition not met if its PBM binding z-score stays under 1, and Condition met if its PBM binding z-score is 1 or above.

CCTAGCAGGCCAGGGTGACTCAAGCATTTCGCTT ... Condition not met

Entry ACTAGCAGGCCAGGGGTCACTCAAGATTAGTCCG : is its PBM binding z-score no less than 1?
Condition met

How about this sequence: TCTGCTAGGTCAGTTGGTTAGCTAACGAGCTGCC
Condition not met

How about this sequence: TCTTGTAGATCAAAGGTTAAGAATGCCGAAGCCT
Condition not met

How about this sequence: CCTAACGGGTCACTGACAGGTTATAGCATTTGGA
Condition met

How about this sequence: CAAACTAGGTCTCAGAGGTCAAAGTCCGTGCGTA
Condition met

###

Tested on: PPARg:RXRa IVT, anti-PPARg (NR concentration 270 nM, RXRa partner concentration 90 nM)
test.details: PBM binding z-score (relative to random genomic background probes); higher = stronger binding; sequences stand for … in GC…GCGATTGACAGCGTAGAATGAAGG
PBM binding z-score values, listed per item

TAGCCTAGGTCACTCAGGGGCCAGTATAGAAAGC ... 3.3
ATATGTAGGTTAGCTGGGGTCACTCAGACTAGGC ... 6.02
TCATATAGGTAATACAGGTGAATGTCGGCATCTA ... 3.5
GCTAGCAGGCCCTTTGGGTCACTCAATGACGGGC ... 0.697

Attention now shifts to the item below.
Fill in the blank: the reported PBM binding z-score of TCATATAGGTAAATGCTAGGGGAAAGTCCGATCT is ____.
2.11

###

Tested on: PPARg DBDmut:RXRa IVT, anti-PPARg (DBD mutation: PPARg1 K132A/R137A, NR concentration 270 nM, RXRa partner concentration 90 nM)
test.details: PBM binding z-score (relative to random genomic background probes); higher = stronger binding; sequences stand for … in GC…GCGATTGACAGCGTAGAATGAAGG
Each entry falls into one class according to its PBM binding z-score; the ranges are class 1: < -0.5; class 2: ≥ -0.5 and < 0.1; class 3: ≥ 0.1

The examples below pair each entry with its known result.
AATACAGCGTCACTAGGCCAGAGTAGGTACGAAT ... class 2
GCTGCTAGGTAAACTGATGGTCAGCTAAAGCTCG ... class 1
AGTTACGGGTCAACGAGGTTATAGCACGCGTATA ... class 3

Now consider the entry below.
Which band does CGAACCAGGTCATTGACAGGACAGTGAATAGTAA fall in?
class 3

###

PBM binding z-score values, listed per item
System: PPARg DBDmut IVT, anti-PPARg (DBD mutation: PPARg1 K132A/R137A, NR concentration 270 nM)
test.details: PBM binding z-score (relative to random genomic background probes); higher = stronger binding; sequences stand for … in GC…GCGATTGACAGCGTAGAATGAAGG
Keep it simple and answer with nothing but the number.

Examples with their reported PBM binding z-score follow.
GCTATTAGTTGAAAGGGCGACCGAATGATTCTCG ... -0.65
GCTAGCAGGCCATTTGGATCACTCAATGACGGGC ... -0.878
CGTCCAAGGTCAGTGCTAGGTCAGTGAAAGCATT ... -1.29
GCTAGCAGGCCATTTGGGGCACTCAATGACGGGC ... -1.74
AGAATGAGGTGAAGATCAGGGAAACAGAATACAT ... 0.73

Fill in the blank: the reported PBM binding z-score of CCAGCCAGGTGAGAAGGTAACTCAGCCTCGATTA is ____.
-0.676

How about this sequence: CCTTGGAGGACAACAGGAGGTCAGAGCTGCCAGA
-0.193

How about this sequence: ATCTCTAGTTAACCAAGTTCAGTGAATGCCGAAC
1.22

How about this sequence: GCTTGTAGATCACGGTTAAGAAAGACTAAGCTAA
-0.283

How about this sequence: GCAGACAGGTGAAACGCAGGTAACTCCGGGTGGC
-0.826

###

System: RXRa DBDmut IVT, anti-RXR (DBD mutation: RXRa K156A/R161A, NR concentration 90 nM)
test.details: PBM binding z-score (relative to random genomic background probes); higher = stronger binding; sequences stand for … in GC…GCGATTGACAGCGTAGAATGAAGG
recorded.endpoint: PBM binding z-score
Keep it simple and answer with nothing but the number.

Examples with their reported PBM binding z-score follow.
ATCGAAAGGTCGTAAGGTGAGTATACAGAAAGGC ... 1.72
ATCGAAAGGTCGAAGGTGAGTATACCCACCCGAA ... 0.771
TTACCAAGGTGAGCTGAGGTCGTTGTTCCAACTC ... 0.437

Query for RXRa DBDmut IVT, anti-RXR (DBD mutation: RXRa K156A/R161A, NR concentration 90 nM): what PBM binding z-score does the record show for CGTCCAAGGTCATAGGATGTCAGTGAAGACAGAT ?
3.93

How about this sequence: CCGCGGAGGACAACAGGAGGTCAGAGCTGCCAGA
0.503

How about this sequence: AGAACCAGGGCACGCTGAGTTGATAGCAGAGTAG
-0.0403

How about this sequence: CCTATTAGTTGACCATGAGGGCAACCGAAGCTCG
0.831

How about this sequence: GTACCAAGGTGAATAGGTCGTTGACGAGTAGGCG
-0.0525

Source: the supplement of paper PMC6555819
